tested on: Enterococcus faecalis ATCC 29212; assay: Broth microdilution MIC/MBC; assay type: cell-based; details: ATCC29212, read-out: MBC
The reader will find reported MBC values listed item by item below.

The cases that follow already have their MBC on record.
line.notation	endpoint.result
CCCc1ccc(/C=N/NC(=O)c2ccc(O)cc2O)cc1	> 1000 µg/mL
Cc1cccc(/C=N/NC(=O)c2ccc(O)cc2O)c1	500 µg/mL
O=C(N/N=C/c1cc(I)cc(I)c1O)c1ccc(O)cc1O	15.6 µg/mL

Request: Name the recorded MBC for COc1cc(/C=N/NC(=O)c2ccc(O)cc2O)cc(I)c1O .
Result: > 1000 µg/mL

Request: # MBC lookup, item CCOc1ccc(/C=N/NC(=O)c2ccc(O)cc2O)cc1
Result: > 1000 µg/mL

Request: Quick one: MBC of O=C(N/N=C/c1ccccc1[N+](=O)[O-])c1ccc(O)cc1O ?
Result: > 1000 µg/mL
